Measured Inhibition by item
# System: Plasmodium falciparum
# Experimental protocol: GSK_TCMDC: Inhibition of Plasmodium falciparum 3D7 in whole red blood cells, using parasite LDH activity as an index of growth. Test compounds present at 2uM
# Type: functional
Hi! Could you send only the number? It should be in %, unit omitted.

>>> measured_number("O=C(Nc1ccc(OC2CCN(Cc3ccc(F)cc3)C2)c(Cl)c1)c1ccco1.O=C(O)C(F)(F)F (stereo not drawn)")
96

Q. Value lookup for Inhibition; key = CC(=O)c1ccc(NC(=O)CSc2nc(-c3ccccc3Cl)ns2)cc1
A. 89

Q. And what about the compound COc1ccc(CN(C)C(=O)CCNS(=O)(=O)c2ccc3c(c2)OCCCO3)cc1F ?
A. 96

Q. Next up: COc1ccc(NS(=O)(=O)c2ccc(C(=O)Nc3ccc(OC(F)(F)F)cc3)cc2)cc1N1CCN(CC2CC2)CC1.O=C(O)C(F)(F)F
A. 89

Q. Entry COc1ccc2ncn(-c3ccc(C(N)=O)c(OCc4ccccc4C(F)(F)F)c3)c2c1 please
A. 98

Q. Let us now turn to Cc1cccc2nc(-c3ccc(-c4cccc(NC(=O)C(C)CN(C)C)c4)s3)[nH]c12 (stereo not drawn)
A. 92

Q. Same again, this time with COC(=O)c1cccc(CNCc2ccc(-c3ccc(-c4nc5cc(C(F)(F)F)ccc5[nH]4)s3)cc2)c1.O=C(O)C(F)(F)F
A. 100

###

# Test system: Plasmodium falciparum
# Experimental protocol: GSK_TCMDC: Inhibition of Plasmodium falciparum Dd2 in whole red blood cells, using parasite LDH activity as an index of growth. Test compounds present at 2uM
# Type: functional
Endpoint label: Inhibition (%)
Numeric only. Scale: %

>>> measured_number("N#Cc1ccc(N2CCN(Cc3cccc(-c4ccc(-c5nc6cc(C(F)(F)F)ccc6[nH]5)s4)c3)CC2)nc1.O=C(O)C(F)(F)F")
52
>>> measured_number("Cc1cc(Nc2ccnc(-c3ccc(Cl)cc3)n2)ccn1")
23
>>> measured_number("NC(=O)c1ccsc1NC(=O)CNC(c1ccc(F)cc1)c1cccs1 (centres undefined)")
71

Q. Item under review: CN1CCN(c2ccc(Nc3nccc(-c4c(-c5cccc(NC(=O)c6c(F)cccc6F)c5)nn5ccccc45)n3)cc2)CC1 . Reported Inhibition?
A. 98

Q. Next record, please: CCCC(CNCc1cccc(SC(F)(F)F)c1)CNc1cc(=O)c2ccccc2[nH]1 (centres undefined)
A. 87

Q. Next record, please: CCC(ON1C(N)=NC(N)=NC1(C)C)c1ccccc1 (centres undefined)
A. 0

Q. Now consider Cn1nccc1C(=O)NCCNCc1ccc(-c2cccc(-c3nc4cc(C(F)(F)F)ccc4[nH]3)c2)cc1.O=C(O)C(F)(F)F .
A. 99

Q. # iterate: Cc1cccc2nc(-c3cccc(-c4ccc(C(=O)N5CCCCC5C(C)O)cc4)c3)[nH]c12 (centres undefined)
A. 91

Q. What do you have for Cc1cccc2nc(-c3cccc(-c4cccc(NC(=O)Cc5c[nH]cn5)c4)c3)[nH]c12 ?
A. 100

Q. Please do the same for COc1ccccc1OCCN(CC(O)COc1cccc2[nH]c3ccccc3c12)CC(O)COc1cccc2[nH]c3ccccc3c12 (centres undefined) as well.
A. 96

Q. Could you do the same for CC(C)COc1ccc(Cl)cc1Cc1ccc(-c2nc3cc(N4CCN(C)CC4)ccc3[nH]2)o1.Cl , please?
A. 41

Q. Same question for CCCNCc1ccc(-c2ccc(CN(CCOC)C(=O)c3ccccc3)cc2)nc1.O=C(O)C(F)(F)F please.
A. 25

Q. Here is the next molecule: Cl.O=C1Nc2ccc3ncccc3c2/C1=C/Nc1ccc(N2CCN(CCO)CC2)cc1
A. 55

###

# System: Plasmodium falciparum
# Experimental protocol: GSK_TCMDC: Inhibition of Plasmodium falciparum Dd2 in whole red blood cells, using parasite LDH activity as an index of growth. Test compounds present at 2uM
# Type: functional
Rule: Inhibition below 50% gives class 1, anything at or above gives class 0.

>>> classification("CC(CCc1ccccc1)NCC(O)c1cccc(C(F)(F)F)c1.Cl (stereo not given)")
"class 0"

Q. Input COc1ccc(Cl)cc1N1CCN(CCCNC(=O)c2ccc(-c3nc4ccc(C(F)(F)F)cc4[nH]3)c(C)c2)CC1 ; condition: Inhibition strictly below 50%. Does it hold?
A. class 1

Q. Now this one: CCNC(=O)CCc1cccc(Br)c1
A. class 0

Q. Now consider CCCNCc1ccc(-c2ccc(CN(CC3CCCO3)C(=O)COc3ccccc3Cl)cc2)nc1.O=C(O)C(F)(F)F (stereo not given) .
A. class 1

Q. Repeat with COc1ccc(Br)cc1/C=C/C(=O)Nc1cccc(C2CCN(C)CC2)c1.O=CO
A. class 1

Q. Another: Cl.N#Cc1ccc2c(c1)CCN(CCC1CCC(NC(=O)/C=C/c3ccc(F)c4ccccc34)CC1)CC2 (stereo not given)
A. class 1

Q. Quick one: CCn1c(C=Cc2cc(Br)ccc2O)nc2ccccc2c1=O
A. class 0

Q. // same read-out, input: CN(N=Cc1ccccc1)C(=N)NCCCC#Cc1cccc(CN2CCCC2)c1
A. class 1

Q. Could you do the same for Nc1nc(O)c2cc(CN(C=O)c3ccc(C(=O)N[C@@H](CCC(=O)O)C(=O)O)cc3)ccc2n1 , please?
A. class 0

###

# Test system: Plasmodium falciparum
# Experimental protocol: GSK_TCMDC: Inhibition of Plasmodium falciparum Dd2 in whole red blood cells, using parasite LDH activity as an index of growth. Test compounds present at 2uM
# Format: functional
Endpoint label: Inhibition (%)
# value in %; strip the unit string

Sample answers from the record:
>>> measured_number("CCOc1cc(C=NNc2nc(C)cc(-n3nc(C)cc3C)n2)ccc1O")
52
>>> measured_number("CCNc1cc(C(=O)N[C@@H](Cc2ccccc2)[C@H](O)CNC2C3CC4CC(C3)CC2C4)cc(N2CCCCS2(=O)=O)c1.Cl (some centres undefined)")
96
>>> measured_number("CNC(=O)NC1=NC(C)(C)N(OCc2ccc(Cl)c(Cl)c2)C(NC(=O)NC)=N1")
0
>>> measured_number("COc1ccc(NC(=O)Nc2ccc(-c3ccccc3)cc2)cc1Cn1nc(Cl)c(N2CCCNCC2)cc1=O.O=C(O)C(F)(F)F")
84
>>> measured_number("Cc1cc(OCCCN2CCC(NS(=O)(=O)c3cccc(Br)c3)CC2)c2ccccc2n1")
28

Q. Data request, read-out Inhibition, for Oc1c(Br)cc2oc3c(c2c1CNCc1ccccc1)CCCC3
A. 74

Q. Try CN(C)C(CNC(=O)c1cc(-c2ccncc2)c(-c2ccc(NC(=O)Nc3cccc(F)c3)cc2)o1)c1ccccc1.O=C(O)C(F)(F)F (centres undefined) next.
A. 99

###

# System: HepG2
# Experimental protocol: GSK_TCMDC: Percent inhibition of human HepG2 cell line. Test compounds present at 10uM.
# Type: functional
Category scheme (Inhibition): bottom bin: < 10%; middle bin: ≥ 10% and < 40%; top bin: ≥ 40%

>>> classification("O=C(/C=C/c1cccc(OC(F)(F)F)c1)NCCCCCN1CCC(c2c[nH]c3ccccc23)CC1")
"middle bin"

Q. Band of CN1CCN(CCc2ccc(N/C=C3\C(=O)Nc4ccc5ncccc5c43)cc2)CC1.Cl ?
A. top bin

Q. Same lookup for CN(C)CCNc1ncnc2c1[nH]c1ccc(Cl)cc12 , please.
A. bottom bin

Q. Then COc1ccc(C2SCC(=O)N2CCc2ccc(OC)c(OC)c2)cc1 (stereo not drawn) ?
A. middle bin

###

# System: Plasmodium falciparum
# Experimental protocol: GSK_TCMDC: Inhibition of Plasmodium falciparum Dd2 in whole red blood cells, using parasite LDH activity as an index of growth. Test compounds present at 2uM
# Format: functional
Measured Inhibition, listed per entry for reference.
API: value field is a number in %; no unit string.

Worked cases, answers included:
>>> measured_number("Cc1nc(N)nc(N)c1OCCCCCCOc1ccccc1.Cl")
0
>>> measured_number("CC(=O)Nc1ccc(OCCCCN(Cc2ccccc2C(F)(F)F)c2ccc(C#N)c(C(F)(F)F)c2)cc1")
47
>>> measured_number("CCCCc1ccc(C(=O)Nc2ccc3nc(N4CCN(C)CC4)cc(C)c3c2)cc1")
21
>>> measured_number("CNC(=O)c1cnc(Nc2ccc(N3CCOCC3)cc2)nc1Nc1cccc(OC)c1.O=C(O)C(F)(F)F")
41
>>> measured_number("CCC(=Cc1cccc([N+](=O)[O-])c1)C(=O)NCC1CCN(c2nc3cc(OC)c(OC)cc3c(=N)[nH]2)CC1.Cl")
62
>>> measured_number("Oc1cc(Nc2ccnc3cc(I)ccc23)c(F)cc1Cl")
77

Q. Query for Plasmodium falciparum: what Inhibition does the record show for CCOC(=O)c1ccc(OCCOc2ccccc2)cc1 ?
A. 0

Q. And what about the compound Cc1cc(NC2CCN(CC3CCCCC3)CC2)nc(Nc2ccccc2Cl)n1 ?
A. 31

###

Entries and their measured Inhibition follow.
# Tested on: HepG2
# Experimental protocol: GSK_TCMDC: Percent inhibition of human HepG2 cell line. Test compounds present at 10uM.
# Type: functional
Give just the numeric value; % need not be written.

Below are worked cases with known answers.
>>> measured_number("COc1ccc2nccc([C@@H](O)CN3CCC(NC(=O)C(c4cc5ccccc5o4)N4CCC(Cc5ccccc5)CC4)CC3)c2c1 (stereo partly drawn)")
11
>>> measured_number("O=C(NCCc1ccccc1F)c1ccc(N2CCN(c3ccncc3)CC2)cn1.O=C(O)C(F)(F)F")
8
>>> measured_number("O=C(Nc1ccnc(-c2cccnc2)n1)c1cc(C(F)(F)F)cc(C(F)(F)F)c1")
22
>>> measured_number("CC(Cc1ccc(Cl)cc1)Nc1nc(NC2CCCC2)nc(N2CCC(C#N)(c3ccccc3)CC2)n1 (stereo not drawn)")
15

Q. What does the data say about its Inhibition? Entry: CSc1c(CNCCCNc2cc(=O)c3ccccc3[nH]2)[nH]c2ccccc12
A. 0

Q. // query: COc1ccc(CCNC(=O)c2cnc3c(c2)nc(-c2c[nH]c(-c4ccccc4)n2)n3CCc2c[nH]cn2)cc1
A. 16

Q. And what about the compound CCN(CCN(C)C)Cc1ccc(-c2ccc(NS(=O)(=O)c3cccc(Cl)c3)cc2)cc1.O=C(O)C(F)(F)F ?
A. 43

Q. Param item: COc1c(C2CCN(CCCCNC(=O)c3ccc(-c4ccc(Cl)cc4)c(O)c3)CC2)ccc2c1CCCC2
A. 91
